# test_target: T1, c-mpl receptor (Homo sapiens (Human), UniProt P40238 26-491, The MPL used for panning was biotinylated; the biotin site is not stated and is not carried by the letters.)
# T1 construct: also called TPO receptor
# T1 sequence: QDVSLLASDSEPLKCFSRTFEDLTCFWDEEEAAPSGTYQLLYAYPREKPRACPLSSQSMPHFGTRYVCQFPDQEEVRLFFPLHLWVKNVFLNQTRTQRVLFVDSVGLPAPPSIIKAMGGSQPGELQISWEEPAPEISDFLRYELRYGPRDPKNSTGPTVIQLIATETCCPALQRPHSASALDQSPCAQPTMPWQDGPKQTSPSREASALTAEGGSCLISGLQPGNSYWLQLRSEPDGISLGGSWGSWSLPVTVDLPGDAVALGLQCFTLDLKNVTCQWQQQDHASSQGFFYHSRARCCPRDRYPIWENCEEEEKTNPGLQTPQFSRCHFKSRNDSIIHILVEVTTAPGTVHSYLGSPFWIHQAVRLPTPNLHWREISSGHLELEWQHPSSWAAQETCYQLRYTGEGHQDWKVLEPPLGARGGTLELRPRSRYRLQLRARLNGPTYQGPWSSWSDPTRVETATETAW
# procedure_summary: phage-ELISA
Decision: Relative activity >= 50 yields fulfilled, all other cases yield not fulfilled.

q: Reported Relative activity at or above 50? IEGWQEGRQSAARA [SEQ ID NO: 324]
a: not fulfilled

q: Decide: Relative activity of IEGPTFKQWQWLRRHHS [SEQ ID NO: 269] >= 50?
a: fulfilled

q: Check this binder for Relative activity at or above 50: IEGPTFKQWQAMRRHS [SEQ ID NO: 313]
a: not fulfilled

q: Assess whether reported Relative activity for IEGWIWRQWLMQTLWHS [SEQ ID NO: 321] sits at 50 or higher.
a: not fulfilled

q: I'd appreciate it if you could say whether IEGPTLHEWLRQRRQHS [SEQ ID NO: 336] has Relative activity at least equal to 50.
a: fulfilled

q: Item IEGSYRERQQAARA [SEQ ID NO: 308] with Relative activity of 50 or above?
a: not fulfilled

q: Has PSICAQIEGPTFKQWQTCMRAHS [SEQ ID NO: 256] a recorded Relative activity greater than or equal to 50?
a: fulfilled

q: Given the entry IEGWTRRQWLAARA [SEQ ID NO: 311] , answer whether its Relative activity meets or surpasses 50.
a: not fulfilled

q: Does IEGPTLRQWLAARA (Positive control of the phage-ELISA) [IEGPTLRQWLAARA (positive control)] have a reported Relative activity of at least 50?
a: fulfilled

q: Please tell me: is the binder IEGPSLPEWLHVWRHHS [SEQ ID NO: 331] at or over 50 in terms of Relative activity?
a: fulfilled

q: # check: Relative activity of SEQ ID NO: 257 (peptide) peptide: IEGYVGGPYEQTNSLERVPPTLAWKYGPRTPSICAQIEGPTFKQWQQCLSDHS is greater than or equal to 50
a: fulfilled

q: For this binder, is measured Relative activity 50 or higher? IEGPTFKQWQRWRLLHS [SEQ ID NO: 251]
a: fulfilled

q: Identify whether the reported Relative activity of the following binder is 50 or greater: IEGPSFTPWFHERRSHS [SEQ ID NO: 268]
a: fulfilled

q: Is the recorded value of Relative activity equal to or greater than 50 for this binder? IEGPTFKQWQKWRLSHS [SEQ ID NO: 323]
a: not fulfilled

q: Does Relative activity meet or surpass 50 for IEGPTLHEWLAERRKHS [SEQ ID NO: 332] ?
a: fulfilled

q: I'd appreciate it if you could say whether IEGPTFKQWQLMGFPHS [SEQ ID NO: 320] has Relative activity at least equal to 50.
a: not fulfilled

q: Decide: is the reported value of Relative activity for IEGPTLHEWLALLRSHS [SEQ ID NO: 333] equal to or greater than 50?
a: fulfilled

q: I'd appreciate it if you could say whether IEGPTFKQWQAWRRWHS [SEQ ID NO: 315] has Relative activity at least equal to 50.
a: not fulfilled

q: Determine whether this binder has Relative activity no lower than 50: IEGWWWQFYAHPQGDHS [SEQ ID NO: 281]
a: fulfilled

q: Reported Relative activity reaches at least 50 for IEGPTFKQWQAMRKNHS [SEQ ID NO: 322] ?
a: not fulfilled

q: Does the binder IEGWSWQFYAHPKGDHS [SEQ ID NO: 300] have recorded Relative activity that is 50 or more?
a: fulfilled

q: Please check the record IEGWWWQFYFHPKEDHS [SEQ ID NO: 262] and state if its Relative activity is at or above 50.
a: fulfilled

q: Is it the case that IEGWIWRQWLAARA [SEQ ID NO: 286] has Relative activity reaching or exceeding 50?
a: fulfilled

q: Is the recorded value of Relative activity equal to or greater than 50 for this binder? IEVWQSHWYQAARALESTSSRLLPMRPPPSICAQIEGPTLPQRMAARA [SEQ ID NO: 316]
a: not fulfilled

q: State whether the measured Relative activity reaches 50, counting equality as reaching it, for IEGWPWQFYAHPQGDHS [SEQ ID NO: 289]
a: fulfilled

q: Can SEQ ID NO: 250 (peptide) peptide: IEGRWPPPQFPVTQQHSLERVGRPPPSVELPRPTFVCAQIEGPTFKQWQRCLREHS be said to have Relative activity at or above 50?
a: fulfilled

q: Reported Relative activity reaches at least 50 for IEGYWWYASWAARA [SEQ ID NO: 288] ?
a: fulfilled

q: Textbook exercise: given the entry IEGPTFKQWQALRKRHS [SEQ ID NO: 318] , state whether its Relative activity is greater than or equal to 50.
a: not fulfilled

q: Could you please find out whether IEGQSWLRRLHWKEEHS [SEQ ID NO: 272] has Relative activity that meets 50 or exceeds it?
a: fulfilled
